Sourced from patent US20210115509A1

The reader will find reported Fold change RBP3 (NM_002900) values listed item by item below.
- Test system: BEAS-2B human bronchial epithelial cell line
- experimental-protocol: Gene expression change by high-throughput RNA sequencing (NextSeq 500) in ketone-exposed BEAS-2B cells
- Type: cell-based
- test-parameters: IC5 conc.: Acetone 5.38, 2-Butanone 22.27, 2-Pentanone 5.24, 2-Hexanone 14.82, 2-Heptanone 5.05 mM
endpoint-name: Fold change RBP3 (NM_002900)

{"structure-notation": "CCCCC(C)=O", "readout-value": 0.358}
{"structure-notation": "CC(C)=O", "readout-value": 0.354}
{"structure-notation": "CCCCCC(C)=O", "readout-value": 0.354}
{"structure-notation": "CCC(C)=O", "readout-value": 0.356}
{"structure-notation": "CCCC(C)=O", "readout-value": 0.354}
